pIC50: −log10 of the molar value.
pIC50 values recorded for PIK3CG (human)

Find the measured pIC50: item `Cc1cc(-c2cccc3cc([C@H](C)Nc4ncnc5scnc45)n(-c4ccccc4)c(=O)c23)cnc1F` , target or system PIK3CG (human). > 7.00

Another molecule: `C[C@H](Nc1ncnc2scnc12)c1cc2cccc(-c3ccc(F)c(F)c3)c2c(=O)n1-c1ccccc1` > 7.00

What about `C[C@H](Nc1ncnc2scnc12)c1cc2cccc(-c3cnc4[nH]ccc4c3)c2c(=O)n1-c1ccccc1` ? > 7.00

---

- system_name: PIK3CB (Human) (UniProt P42338)
- Sequence (P42338 whole entry, looked up): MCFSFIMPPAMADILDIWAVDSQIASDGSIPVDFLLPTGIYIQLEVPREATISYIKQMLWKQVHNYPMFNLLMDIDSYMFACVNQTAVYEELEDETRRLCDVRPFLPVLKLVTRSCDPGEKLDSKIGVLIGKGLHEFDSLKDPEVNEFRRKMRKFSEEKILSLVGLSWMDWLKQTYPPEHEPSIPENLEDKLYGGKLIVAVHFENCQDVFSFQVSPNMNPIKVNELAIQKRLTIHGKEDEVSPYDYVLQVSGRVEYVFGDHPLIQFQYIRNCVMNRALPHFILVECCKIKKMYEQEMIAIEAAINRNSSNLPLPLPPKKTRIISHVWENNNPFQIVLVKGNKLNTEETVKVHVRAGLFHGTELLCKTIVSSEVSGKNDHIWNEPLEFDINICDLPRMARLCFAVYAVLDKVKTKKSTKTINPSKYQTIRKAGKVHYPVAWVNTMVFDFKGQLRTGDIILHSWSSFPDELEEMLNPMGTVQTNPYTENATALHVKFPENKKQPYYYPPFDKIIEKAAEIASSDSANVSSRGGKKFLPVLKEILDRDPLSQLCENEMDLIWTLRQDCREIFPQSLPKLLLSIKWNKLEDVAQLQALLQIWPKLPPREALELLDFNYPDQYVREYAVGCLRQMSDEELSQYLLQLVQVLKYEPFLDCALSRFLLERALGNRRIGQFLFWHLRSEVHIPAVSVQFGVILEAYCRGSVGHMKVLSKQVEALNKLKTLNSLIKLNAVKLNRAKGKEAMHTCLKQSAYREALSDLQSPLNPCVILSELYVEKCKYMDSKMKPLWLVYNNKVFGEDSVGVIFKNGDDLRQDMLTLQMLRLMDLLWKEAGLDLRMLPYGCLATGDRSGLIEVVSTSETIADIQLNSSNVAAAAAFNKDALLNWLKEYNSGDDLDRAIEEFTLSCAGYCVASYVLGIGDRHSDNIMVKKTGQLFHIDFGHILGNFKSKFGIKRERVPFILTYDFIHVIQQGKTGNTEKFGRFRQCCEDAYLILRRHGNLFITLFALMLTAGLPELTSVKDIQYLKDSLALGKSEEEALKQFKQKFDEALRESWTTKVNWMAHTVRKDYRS
- protocol_details: Enzyme Assay
test_readout: IC50

Observe how each entry below is paired with its result.
C[C@H](Nc1ncnc2scnc12)c1cc2cccc(-c3cnc4[nH]ccc4c3)c2c(=O)n1-c1ccccc1 : 0.1 to 1 µM
C[C@H](Nc1ncnc2scnc12)c1cc2cccc(Cl)c2c(=O)n1-c1cccc(F)c1 : < 0.1 µM
C[C@H](Nc1ncnc2scnc12)c1cc2cccc(-c3cnn(C)c3)c2c(=O)n1C1CC1 : 0.1 to 1 µM
Cc1nc2c(N[C@@H](C)c3cc4cccc(-c5cnn(C)c5)c4c(=O)n3-c3ccccc3)ncnc2s1 : > 10 µM
Cc1sc2ncnc(N[C@@H](C)c3cc4cccc(Cl)c4c(=O)n3-c3ccccc3)c2c1C : > 10 µM
CC(C)Cn1cc(-c2cccc3cc([C@H](C)Nc4ncnc5scnc45)n(-c4ccccc4)c(=O)c23)cn1 : > 10 µM

# get_value(readout= IC50, system= PIK3CB (Human) (UniProt P42338)) for `CC(C)n1c([C@H](C)Nc2ncnc3scnc23)cc2cccc(-c3ccnnc3)c2c1=O` > 10 µM

Another molecule to check: `C[C@H](Nc1ccnc2scnc12)c1cc2cccc(Cl)c2c(=O)n1-c1ccccc1` 0.1 to 1 µM

Further, for `C[C@H](Nc1ncnc2scnc12)c1cc2cccc(C(=O)N(C)C)c2c(=O)n1-c1ccccc1` ? > 10 µM

// query: `C[C@H](Nc1ncnc2scnc12)c1cc2cccc(-c3cnc4ccccc4c3)c2c(=O)n1-c1ccccc1` 0.1 to 1 µM

Another molecule: `C[C@H](Nc1ncnc2scnc12)c1cc2cccc(Cl)c2c(=O)n1CCN1CCCC1` 0.1 to 1 µM

Likewise for `C[C@H](Nc1ncnc2scnc12)c1cc2cccc(C=O)c2c(=O)n1-c1ccccc1` ? 0.1 to 1 µM

Ok, now `C[C@H](Nc1ncnc2scnc12)c1cc2cccc(-c3cnc4nccnc4c3)c2c(=O)n1-c1ccccc1` > 10 µM

`C[C@H](Nc1ccnc2scnc12)c1cc2cccc(Cl)c2c(=O)n1-c1cccc(F)c1` ? 0.1 to 1 µM

Now the molecule `C[C@H](Nc1ncnc2scnc12)c1cc2cccc(C(=O)N3CCOCC3)c2c(=O)n1-c1ccccc1` > 10 µM

Note, next up: `C[C@H](Nc1ncnc2scnc12)c1cc2cccc(C(=O)O)c2c(=O)n1-c1ccccc1` > 10 µM

Follow-up entry: `C[C@H](Nc1ncnc2scnc12)c1cc2cccc(-c3ccc(N)nc3)c2c(=O)n1C1CC1` 0.1 to 1 µM

Also `C[C@H](Nc1ncnc2scnc12)c1cc2cccc(Cl)c2c(=O)n1C` , if possible. < 0.1 µM

---

compounds and their reported IC50
- system_name: PIK3CD (Human) (UniProt O00329)
- Sequence (O00329 whole entry, looked up): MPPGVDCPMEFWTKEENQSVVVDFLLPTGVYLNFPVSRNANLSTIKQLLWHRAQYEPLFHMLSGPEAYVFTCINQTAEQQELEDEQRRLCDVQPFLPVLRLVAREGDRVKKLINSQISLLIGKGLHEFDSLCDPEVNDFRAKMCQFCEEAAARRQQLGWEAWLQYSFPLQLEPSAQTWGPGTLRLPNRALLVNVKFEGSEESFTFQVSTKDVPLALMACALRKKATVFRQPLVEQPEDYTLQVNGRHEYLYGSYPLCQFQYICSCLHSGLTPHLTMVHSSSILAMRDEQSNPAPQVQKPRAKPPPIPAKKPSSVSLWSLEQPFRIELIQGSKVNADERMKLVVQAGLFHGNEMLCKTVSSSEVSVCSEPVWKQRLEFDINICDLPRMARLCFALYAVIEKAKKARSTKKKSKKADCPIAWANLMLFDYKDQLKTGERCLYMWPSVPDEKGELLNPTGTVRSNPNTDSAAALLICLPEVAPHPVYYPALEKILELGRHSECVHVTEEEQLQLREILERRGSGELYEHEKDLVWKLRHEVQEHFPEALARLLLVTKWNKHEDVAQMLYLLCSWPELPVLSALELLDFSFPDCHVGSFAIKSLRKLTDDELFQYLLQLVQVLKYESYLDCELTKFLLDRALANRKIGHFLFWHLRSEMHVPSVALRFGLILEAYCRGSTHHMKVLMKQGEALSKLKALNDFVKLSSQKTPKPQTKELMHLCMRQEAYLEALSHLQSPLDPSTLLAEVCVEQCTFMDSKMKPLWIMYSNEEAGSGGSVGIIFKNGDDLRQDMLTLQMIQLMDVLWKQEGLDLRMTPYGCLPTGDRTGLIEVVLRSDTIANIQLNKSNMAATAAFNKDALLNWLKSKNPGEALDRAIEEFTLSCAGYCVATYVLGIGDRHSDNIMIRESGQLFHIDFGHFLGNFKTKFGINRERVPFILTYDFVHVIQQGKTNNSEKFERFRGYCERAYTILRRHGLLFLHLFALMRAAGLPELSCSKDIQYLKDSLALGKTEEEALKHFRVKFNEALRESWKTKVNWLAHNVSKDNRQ
- protocol_details: Enzyme Assay

Observe how each entry below is paired with its result.
C[C@H](Nc1ncnc2scnc12)c1cc2cccc(-c3cnn(C)c3)c2c(=O)n1C : 100 to 1000 nM
C[C@H](Nc1ncnc2scc(-c3ccccc3)c12)c1cc2cccc(Cl)c2c(=O)n1-c1ccccc1 : 100 to 1000 nM
COc1ncc(-c2cccc3cc([C@H](C)Nc4ncnc5scnc45)n(C4CC4)c(=O)c23)cn1 : < 100 nM
Cc1sc2ncnc(N[C@@H](C)c3cc4cccc(Cl)c4c(=O)n3-c3ccccc3)c2c1C : < 100 nM

Could you tell me which IC50 is on file for `C[C@H](Nc1ncnc2scnc12)c1cc2cccc(-c3cnc(OCc4ccccc4)nc3)c2c(=O)n1-c1ccccc1` ? < 100 nM

What about `C[C@H](Nc1ncnc2scnc12)c1cc2cccc(/C=C/c3ccccc3)c2c(=O)n1-c1ccccc1` ? 100 to 1000 nM

What about this compound? `COc1ncc(-c2cccc3cc([C@H](C)Nc4ncnc5scnc45)n(-c4ccccc4)c(=O)c23)cc1C(F)(F)F` < 100 nM

Let us now turn to `Cc1ncc(-c2cccc3cc([C@H](C)Nc4ncnc5scnc45)n(-c4ccon4)c(=O)c23)cn1` 100 to 1000 nM

---

- system_name: PIK3CA (human)
- protocol_details: Enzyme Assay
pIC50: −log10 of the molar value.
// reported pIC50 per item

What value of measured pIC50 is listed for `C[C@H](Nc1ncnc2scnc12)c1cc2cccc(-c3cnc4ccoc4c3)c2c(=O)n1-c1ccccc1` ? 6.00 to 7.00

And for `C[C@H](Nc1ccnc2scnc12)c1cc2cccc(Cl)c2c(=O)n1-c1ccccc1` ? 6.00 to 7.00

Ok, now `C[C@H](Nc1ncnc2scnc12)c1cc2cccc(-c3cn(C)cn3)c2c(=O)n1-c1ccccc1` < 5.00

Cool, now `C[C@H](Nc1ncnc2scnc12)c1cc2cccc(-c3ccc(N)nc3)c2c(=O)n1-c1ccccc1` 6.00 to 7.00

Same lookup for `CC(C)n1c([C@H](C)Nc2ncnc3scnc23)cc2cccc(-c3ccnnc3)c2c1=O` , please. < 5.00

`C[C@H](Nc1ncnc2scnc12)c1cc2cccc(Cl)c2c(=O)n1C1CC1` , same question. 6.00 to 7.00

Same again, this time with `C[C@H](Nc1ncnc2scnc12)c1cc2cccc(-c3cnc4c(c3)CCCO4)c2c(=O)n1-c1ccccc1` 6.00 to 7.00

Please do the same for `CNC(=O)c1cccc2cc([C@H](C)Nc3ncnc4scnc34)n(-c3ccccc3)c(=O)c12` as well. < 5.00

Would you mind doing `C[C@H](Nc1ncnc2scnc12)c1cc2cccc(C(=O)O)c2c(=O)n1-c1ccccc1` as well? < 5.00

---

- system_name: PIK3CD (Human) (UniProt O00329)
- protocol_details: Enzyme Assay
Let's look at some compounds and their measured IC50.

COc1cnccc1-c1cccc2cc([C@H](C)Nc3ncnc4scnc34)n(-c3ccccc3)c(=O)c12 : 0.1 to 1 µM
COc1ncc(-c2cccc3cc([C@H](C)Nc4ncnc5scnc45)n(-c4cccc(F)c4)c(=O)c23)cn1 : < 0.1 µM
C[C@H](Nc1ncnc2scnc12)c1cc2cccc(Cl)c2c(=O)n1-c1cccc(F)c1 : < 0.1 µM
CNC(=O)c1cccc2cc([C@H](C)Nc3ncnc4scnc34)n(-c3ccccc3)c(=O)c12 : 0.1 to 1 µM
C[C@H](Nc1ncnc2scnc12)c1cc2cccc(-c3ccncc3)c2c(=O)n1-c1ccccc1 : < 0.1 µM
C[C@H](Nc1ncnc2scnc12)c1cc2cccc(-c3cn[nH]c3)c2c(=O)n1-c1ccccc1 : < 0.1 µM
C[C@H](Nc1ncnc2scnc12)c1cc2cccc(-c3ccc(C(F)(F)F)nc3)c2c(=O)n1-c1ccccc1 : < 0.1 µM
COc1cncc(-c2cccc3cc([C@H](C)Nc4ncnc5scnc45)n(C4CC4)c(=O)c23)c1 : < 0.1 µM

Could you share what IC50 was measured for `C[C@H](Nc1ncnc2scnc12)c1cc2cccc(-c3cnc4c(c3)CCCO4)c2c(=O)n1-c1ccccc1` , tested on PIK3CD (Human) (UniProt O00329)? < 0.1 µM

Similarly, `C[C@H](Nc1ncnc2scnc12)c1cc2cccc(-c3ccnnc3)c2c(=O)n1-c1ccccc1` ? < 0.1 µM

Let us now turn to `C[C@H](Nc1ncnc2scnc12)c1cc2cccc(Cl)c2c(=O)n1-c1cccc(C(F)(F)F)c1` 0.1 to 1 µM

Query `COc1cc(-c2cccc3cc([C@H](C)Nc4ncnc5scnc45)n(-c4ccccc4)c(=O)c23)ccn1` next < 0.1 µM

Moving on to `C[C@H](Nc1ncnc2scnc12)c1cc2scc(-c3cnn(C)c3)c2c(=O)n1-c1ccccc1` 0.1 to 1 µM

Next: `Cc1cncc(-c2cccc3cc([C@H](C)Nc4ncnc5scnc45)n(-c4ccccc4)c(=O)c23)c1` < 0.1 µM

Ok, now `COc1ncc(-c2cccc3cc([C@H](C)Nc4ccnc5scnc45)n(-c4ccccc4)c(=O)c23)cn1` < 0.1 µM

Same lookup for `C[C@H](Nc1ncnc2scnc12)c1cc2cccc(Cl)c2c(=O)n1C` , please. < 0.1 µM

Another compound to check: `C[C@H](Nc1ncnc2scnc12)c1cc2cccc(-c3cnn(C)c3)c2c(=O)n1C1CC1` < 0.1 µM

Next record, please: `C[C@H](Nc1ncnc2scnc12)c1cc2cccc(-c3cnc(N)nc3)c2c(=O)n1-c1ccccc1` < 0.1 µM

---

A collection of compounds and their measured IC50
- system_name: PIK3CD (Human)
- protocol_details: Cell-Based Assay
- run_conditions: raji

COc1ncc(-c2cccc3cc([C@H](C)Nc4ncnc5scnc45)n(-c4ccon4)c(=O)c23)cn1 : < 100 nM

Endpoint output: IC50 of `C[C@H](Nc1ncnc2scnc12)c1cc2cccc(Cl)c2c(=O)n1-c1ccon1` . Value? < 100 nM

Try this compound next: `CC(C)n1c([C@H](C)Nc2ncnc3scnc23)cc2cccc(-c3ccc(=O)n(C)c3)c2c1=O` < 100 nM

`CC(C)n1c([C@H](C)Nc2ncnc3scnc23)cc2cccc(-c3ccnnc3)c2c1=O` , same question. < 100 nM

Can you handle `COc1ncc(-c2cccc3cc([C@H](C)Nc4ncnc5scnc45)n(-c4ccccc4)c(=O)c23)cn1` next? < 100 nM

Then this compound: `C[C@H](Nc1ncnc2scnc12)c1cc2cccc(-c3cnn(C)c3)c2c(=O)n1-c1ccccc1` < 100 nM

Now this one: `Cc1ncc(-c2cccc3cc([C@H](C)Nc4ncnc5scnc45)n(-c4ccon4)c(=O)c23)cn1` < 100 nM

Try `C[C@H](Nc1ncnc2scnc12)c1cc2cccc(-c3cncc(N)c3)c2c(=O)n1-c1ccccc1` next. < 100 nM
